- System: HCC-2998 colon
- Test summary: NCI-60 one-dose screen, 48 h (100 = growth as untreated, 0 = no growth, -100 = all killed)
- Condition summary: 10 µM unless noted
Compounds without any hit were thinned out: in the full panel of roughly 83,000, 20% have a hit.
Each entry below carries its reported growth.
Endpoint: growth (%)

1. N#Cc1c(-c2ccc(Cl)cc2)nc(NN=Cc2cccc(Cl)c2)nc1N1CCOCC1; 105
2. Cc1cc([N+](=O)[O-])ccc1NC(=O)c1ccc2c(c1)nc(-c1ccccc1)n2C1CCCCC1; 88.3
3. Nc1ncc(-c2ccc3ncnc(N4CCc5ccc(Cl)cc54)c3c2)cn1; 5.87
4. C=C(C)[C@@H]1CC[C@]2(C(=O)NC(C)=O)CC[C@]3(C)[C@H](CC[C@@H]4[C@@]5(C)CCCNC(C)(C)[C@@H]5CC[C@]43C)[C@@H]12; -58.3
5. COc1cc2nc3cc([N+](=O)[O-])ccc3c(NCCCNCCO)c2cc1OC; -47.9
6. O=C1/C(=C/c2ccc(-c3ccc(Cl)cc3)o2)SC(=S)N1CCc1ccc(O)cc1; 89.6
7. COc1ccc(C2=C/C(=C\c3ccccc3O)C(=O)N2Cc2ccccc2)cc1; 107
8. CC(C)C(=O)Nc1ncc(C(=O)NCCN(Cc2ccccc2)C(=O)c2ccc(S(=O)(=O)Nc3ccccc3)cc2)s1; 106
9. O=C(N/N=C/c1ccccc1Cl)c1ccccc1Nc1ccnc(C(F)(F)F)c1; -20.7
10. COc1ccc(-c2ccc(-c3ccc(C(=N)N)nc3)s2)cc1; -44.9
11. COc1cc2c(c(OC)c1OC)CCC(c1cccc(NC(=O)c3cccc(Cl)c3)c1)O2 (configuration not stated); 100
12. COc1cc(C)cc(-c2c(-c3cc(N4CC(O)C4)nc(-c4cccnc4)n3)cnn2C)c1; 92.8
13. O=C1CCC(C(=O)N/N=C/c2ccc([N+](=O)[O-])cc2)N1 (configuration not stated); 95.3
14. CCCCCCC/C=N/NC(=O)c1ccc(-n2cc(-c3ccccc3)nn2)cc1; 88
15. C#CCOc1ccc(C2=NN(CCCC)C3N=C(Cl)c4ncn(CCCC)c4N23)cc1OCC#C (configuration not stated); 107
16. Cc1nc2sc(C(=O)Nc3ccccc3)c(N)c2cc1C(O)c1ccccc1 (configuration not stated); 15.4
17. CC(C)(C)CC(C)(C)Nc1c(-c2c(O)c3ccccc3oc2=O)nc2sccn12; 98.5
18. COc1cccc(C2C3=C(COC3=O)N(CCO)c3cc4c(cc32)OCCO4)c1 (configuration not stated); 4.51
19. O=C(OCC(O)C(=O)NC12CC3CC(CC(C3)C1)C2)c1cccc(Br)c1 (configuration not stated); 114
20. CCCCCCCC/C=C\CCCCCCCCOc1ccc(CC(=O)NCC[N+]2(C)CCCC2)cc1; 37.2
21. CN1C(=O)N(C)C2C1NN=c1s/c(=C\c3ccc(F)cc3)c(=O)n12 (configuration not stated); 57.8
22. CC(CN)[C@@H]1CC[C@]2(CO)CC[C@]3(C)[C@H](CC[C@@H]4[C@@]5(C)CCC(NCCO)C(C)(C)[C@@H]5CC[C@]43C)[C@@H]12 (some centres not stated); -26.8

###

- System: SN12C renal
- Test summary: NCI-60 one-dose screen, 48 h (100 = growth as untreated, 0 = no growth, -100 = all killed)
- Condition summary: 10 µM unless noted
Compounds without any hit were thinned out: in the full panel of roughly 83,000, 20% have a hit.
Endpoint: growth (%)

1) COc1cc(OC)cc(C(=O)Nc2cnc(Nc3ccc(N4CCOCC4)nc3)nc2Oc2ccc(C(F)(F)F)cc2)c1; 43.6
2) CN1CCN(Cc2ccc(NC(=O)c3cncc(C#Cc4c(N)ncc5cc(F)ccc45)c3)cc2C(F)(F)F)CC1; 41.7
3) O=C(/C=C/c1cccc([N+](=O)[O-])c1)c1ccc(Nc2nc(Nc3ccc(F)cc3)nc(Nc3ccc(Cl)cc3)n2)cc1; 88.3
4) CCn1c2ccccc2c2cc(C(O)c3cccc4ncccc34)ccc21 (centres undefined); 27.6
5) COc1cc2cc(Oc3ccc(NC(=O)Nc4ccc(Cl)c(Cl)c4)cc3)c(C)nc2cc1OCCN1CCCCC1; 101
6) N#CC1=C(N)Oc2c(ccc3ccccc23)C1c1cc2ccccc2n2nnnc12 (centres undefined); 27.3
7) CNC1=C(Br)C(=O)c2c(C(=O)OC)c(C)nc(C)c2C1=O; 45.4
8) CCN(CC)CCCC(Nc1c2ccc(Cl)cc2nc2ccc(OC)cc12)c1ccncc1 (centres undefined); 63.5
9) COc1cc(C)cc(-c2c(-c3cc(N4CC(O)C4)nc(-c4cccnc4)n3)cnn2C)c1; 77.8

###

- System: TK-10 renal
- Test summary: NCI-60 one-dose screen, 48 h (100 = growth as untreated, 0 = no growth, -100 = all killed)
- Condition summary: 10 µM unless noted
This is part of a sample that, as a whole, favours compounds with a hit. Of some 83,000 tested, about 20% had one in any assay.
Endpoint: growth (%)

1. COC(=O)CNC(=O)c1ccc(NC(=O)c2[nH]c(C)c(Cl)c2Cl)c(O[C@H]2CCNC2)c1; 104
2. O=C(OCC(O)(CO)C(=O)NC12CC3CC(CC(C3)C1)C2)c1ccc(Cl)cc1 (stereo not drawn); 85.3
3. CCCC[N+]1(C)CCN=C1Cc1ccccc1 (stereo not drawn); 91.5
4. CO[C@H]1/C=C/O[C@@]2(C)Oc3c(C)c(O)c4c(O)c(c5c(nc6cc(C)ccn65)c4c3C2=O)NC(=O)/C(C)=C\C=C\[C@H](C)[C@H](O)[C@@H](C)C(O)[C@@H](C)[C@H](OC(C)=O)[C@@H]1C (stereo partly drawn); 102
5. COc1cc2c(cc1OC)CC[N+](CCC[N+](C)(C)C)=C2; 80.5
6. CC(C)CCc1nc2ccc(NCc3ccc(OCCN4CCC(C)CC4)cc3)cc2[nH]1; 111
7. C=C(C)[C@@H]1CC[C@]2(C(=O)NC(C)=O)CC[C@]3(C)[C@H](CC[C@@H]4[C@@]5(C)CCCNC(C)(C)[C@@H]5CC[C@]43C)[C@@H]12; 10.6
8. COc1ccc(NC(=O)CSc2oc(-c3ccccc3)nc2S(=O)(=O)c2ccc(Cl)cc2)c(OC)c1; 67.1

###

- Tested on: IGROV1 ovarian
- Test summary: NCI-60 one-dose screen, 48 h (100 = growth as untreated, 0 = no growth, -100 = all killed)
- Condition summary: 10 µM unless noted
The panel holds about 83,000 compounds, 20% with a hit somewhere; the sample as a whole holds those more often. Active and inactive are the calls of the source. How the source made its calls: active means growth percent below 10; inactive means the rest.
Listed molecules paired with reported growth
Endpoint: growth

1. C=C1/C(=C\C=C2/CCC[C@]3(C)[C@@H]([C@H](C)CCCC(C)(C)O)CC[C@@H]23)C[C@@H](OC(=O)CBr)C[C@@H]1O; -65.5% (active)
2. O=C(Nc1ncc(Cc2cc(C(F)(F)F)ccc2Cl)s1)C(=S)N1CCOCC1; 84.3% (inactive)
3. CCC(=C(c1ccc(OCCN(CC)CC)cc1)c1ccc(OCCN(CC)CC)cc1)c1ccc(Cl)cc1; -78.6% (active)
4. C=C1C(=O)O[C@H]2[C@H]1CC/C(COC(=O)NCc1ccc(Cn3c(=O)sn(CCCC)c3=O)cc1)=C\CC[C@@]1(C)O[C@@H]21; 36.4% (inactive)
5. Nc1ncc(-c2ccc3ncnc(N4CCc5cc(F)c(Cl)cc54)c3c2)cc1C(F)(F)F; -42.6% (active)
6. CC(=O)OCC(=O)O[C@@H]1C[C@]2(C(C)C)O[C@@]1(C)[C@@H]1CC[C@@H](C)[C@H]1[C@@H]2OC(=O)/C=C/c1ccccc1; 106% (inactive)
7. O=c1ccc2c(ccc3ncccc32)o1; 109% (inactive)
8. CCNCCNc1c(C)c(-c2ccc(C(F)(F)F)cc2)c(C#N)c2nc3ccccc3n12; 78.9% (inactive)

###

# growth per record follows
- Test system: MALME-3M melanoma
- Test summary: NCI-60 one-dose screen, 48 h (100 = growth as untreated, 0 = no growth, -100 = all killed)
- Condition summary: 10 µM unless noted
Compounds without any hit were thinned out: in the full panel of roughly 83,000, 20% have a hit. Active and inactive are the calls of the source. Rule for the calls: active = growth percent below 10; inactive = the rest.
Endpoint: growth

1. CCOC(=O)C1=C(c2ccccc2)N=C2N(c3ccccc3)N=C(C(C)=O)N2C1c1ccc(Br)cc1 (stereo not given); 97.3% (inactive)
2. COC1CC(O)C2=C(CC3C(/C(C)=C\CC=C(C)C)CCC3(C)O2)C1=O (stereo not given); 102% (inactive)
3. Nc1ncc(-c2ccc3ncnc(N4CCc5ccc(Cl)cc54)c3c2)cn1; -17.4% (active)
4. NCCCCCNc1noc(Cc2c[nH]c3cc(Br)ccc23)n1; 13.5% (inactive)
5. O=C1OCC2=C1C(c1cccc(F)c1)c1cc3c(cc1N2CCO)CCC3 (stereo not given); 50.9% (inactive)
6. CC(=O)Cc1nsc(NC(=O)c2cc(-c3cc(Cl)ccc3Cl)oc2C)n1; 113% (inactive)
7. C#CC(F)(F)[C@]1(O)CCC2C3CCC4=CC(=O)CCC4=C3[C@@H](c3ccc(N(C)C)cc3)C[C@@]21C (stereo not given in full); 103% (inactive)
8. c1ccc2cc(Cn3cc[n+](Cc4ccc5ccccc5c4)c3)ccc2c1; 13.8% (inactive)
9. CCOc1ccccc1NC(=O)CCC(=O)OC; 72.9% (inactive)
10. CCn1c2ccccc2c2cc(C(O)c3cccc4ncccc34)ccc21 (stereo not given); 57.7% (inactive)
11. CC(CN)[C@@H]1CC[C@]2(CO)CC[C@]3(C)[C@H](CC[C@@H]4[C@@]5(C)CCC(NCCO)C(C)(C)[C@@H]5CC[C@]43C)[C@@H]12 (stereo not given in full); -35.5% (active)
12. CCCNNC(=O)c1ccc(CNC(=O)/C=C/c2ccccc2)cc1; 30.1% [2.5 µM] (inactive)
13. O=C(Nc1ncc(Cc2ccccc2)s1)c1cc(-c2ccccc2)nc2ccccc12; 98% (inactive)
14. Cn1ncc(CC(=O)O)c1-n1nnc2cc(Cl)ccc2c1=O; 93.9% (inactive)
15. Cc1cc([N+](=O)[O-])ccc1NC(=O)c1ccc2c(c1)nc(-c1ccccc1)n2C1CCCCC1; 80.4% (inactive)
16. CC1=NC(=S)NC(c2ccccc2)/C1=C1/CC(c2ccccc2O)NN1 (stereo not given); 97.9% (inactive)
17. CC1=C([Se]CC(OC(=O)[C@@H](CO)NC(=O)OC(C)(C)C)C(=O)NCCCCCC(=O)OCc2ccccc2)C(=O)c2ccccc2C1=O (stereo not given in full); -68.1% (active)
18. Cc1ccc(Nc2oc(-c3ccccc3)nc2[P+](c2ccccc2)(c2ccccc2)c2ccccc2)cc1; -61.6% (active)
19. O=c1ccc2nc(-c3ccccc3)nn(-c3ccccn3)c-2c1; 50.1% (inactive)
20. N#CC1=C(N)Oc2c(ccc3cccnc23)C1c1ccccc1 (stereo not given); 47.9% (inactive)
